# Tested on: MOLT-4 leukemia
# ASSAY_NAME: NCI-60 one-dose screen, 48 h (100 = growth as untreated, 0 = no growth, -100 = all killed)
# TEST_CONTEXT: 10 µM unless noted
About 83,000 compounds went through this panel and 20% of them were active in at least one assay; those are over-represented in the sample as a whole.
# label = t if growth >= 10% else f

Dear colleague, could you confirm whether COc1cc(/C=C\c2cc(/C=C\c3ccc(O)c(OC)c3)n(C(=O)Nc3ccc(C(F)(F)F)cc3)n2)ccc1O has growth at or above 10%?
t

Dear colleague, could you confirm whether O=C1CCCN1C1CCN2CCCc3cccc1c32 (stereo not drawn) has growth at or above 10%?
t

Dear colleague, could you confirm whether COc1ccc(-c2cnnn2-c2nonc2-n2cccc2)cc1 has growth at or above 10%?
f

Dear colleague, could you confirm whether CCNC(=O)c1ccc2c(c1)nc(-c1ccc(Cl)cc1)n2-c1cc(C(C)(C)C)[nH]n1 has growth at or above 10%?
t

Dear colleague, could you confirm whether CCN(CC)CCCCCCCCNc1c2ccc(Cl)cc2nc2ccc(OC)cc12 has growth at or above 10%?
f

Dear colleague, could you confirm whether C#Cc1cccc(Nc2nc3cc([N+](=O)[O-])ccc3nc2Nc2ccc(O)cc2)c1 has growth at or above 10%?
f

Dear colleague, could you confirm whether O=C1OC(/C=C/c2ccccc2)=NC/1=C/c1ccccc1[N+](=O)[O-] has growth at or above 10%?
t

Dear colleague, could you confirm whether O=C1CCCN1C(O)CCN(Cc1ccccc1)Cc1ccc(Cl)cc1 (stereo not drawn) has growth at or above 10%?
t

Dear colleague, could you confirm whether CC1=C(O)C(=O)CC1 has growth at or above 10%?
t

Dear colleague, could you confirm whether Cc1ccc(NC(=O)c2cc(NCc3cc(O)ccc3O)ccc2O)cc1 has growth at or above 10%?
t

Dear colleague, could you confirm whether ClC1(Cl)C2CCCCCCC21 (stereo not drawn) has growth at or above 10%?
t

Dear colleague, could you confirm whether CCCC(CCC)(C(N)=O)C(=O)O has growth at or above 10%?
t

Dear colleague, could you confirm whether O=C(/C=C/c1ccc(F)cc1)N1CCN(C(=O)/C=C/c2ccc(C(F)(F)F)cc2)CC1 has growth at or above 10%?
t

Dear colleague, could you confirm whether Nc1cc(C(=O)O)cc(C(=O)O)c1 has growth at or above 10%?
t

Dear colleague, could you confirm whether COc1cc(C2CC(c3ccc(Cl)cc3)=NN2C=O)ccc1Oc1ccnc2cc(Cl)ccc12 (stereo not drawn) has growth at or above 10%?
t

Dear colleague, could you confirm whether O=C(/C=C/c1ccccc1Br)c1cccc(OCCCCOc2cccc(C(=O)/C=C/c3ccccc3Br)c2)c1 has growth at or above 10%?
t

Dear colleague, could you confirm whether CCSCC1CC(O)(c2ccccc2)C(c2ccccc2)C(c2ccc(F)cc2)O1 (stereo not drawn) has growth at or above 10%?
f

Dear colleague, could you confirm whether COc1cc(/C=C/c2cc(/C=C/c3ccc(O)c(OC)c3)n(C(=O)Nc3ccc(F)c(Cl)c3)n2)ccc1O has growth at or above 10%?
f

Dear colleague, could you confirm whether O=C(CC(=O)c1ccccc1F)Nc1ccc([N+](=O)[O-])cc1 has growth at or above 10%?
t

Dear colleague, could you confirm whether N=C(N)c1ccc(NCCNc2ccc(C(=N)N)cc2)cc1 has growth at or above 10%?
f

Dear colleague, could you confirm whether CCOC(=O)C1=C(C(=O)OCC)N(c2cc(OC)c(OC)c(OC)c2)C(N)=C(C#N)C1c1cc(=O)[nH]c2ccccc12 (stereo not drawn) has growth at or above 10%?
t

Dear colleague, could you confirm whether O=C(Nc1ccc(-n2ccc3c(NC(=O)c4ccccc4)nccc32)cc1)c1ccc(N2CCOCC2)c(C(F)(F)F)c1 has growth at or above 10%?
t

Dear colleague, could you confirm whether O=C(CSc1nc2c(n1Nc1ccccc1)-c1ccccc1SC2)Nc1nccs1 has growth at or above 10%?
t

Dear colleague, could you confirm whether O=C(Nc1ccc([N+](=O)[O-])cc1)c1cc2ccccc2cc1O has growth at or above 10%?
f

Dear colleague, could you confirm whether O=S(=O)(Cc1ccc(Cl)cc1Cl)c1ccc(Cl)cc1 has growth at or above 10%?
t

Dear colleague, could you confirm whether COc1cnc2c(c1)C(=O)c1c-2n(CCCNC(C)C)c(=O)c2cc(Cl)ccc12 has growth at or above 10%?
f

Dear colleague, could you confirm whether C=CC(=O)N1CN(C(=O)C=C)CN(C(=O)C=C)C1 has growth at or above 10%?
t

Dear colleague, could you confirm whether COc1cc(OC)c2sc(-c3ccc(-n4cncc4-c4ccc(OC)c(N)c4)cc3)nc2c1 has growth at or above 10%?
t

Dear colleague, could you confirm whether Nc1c(C(=O)Nc2ccccc2)sc2nc3c(cc12)C(=O)CCC3 has growth at or above 10%?
t

Dear colleague, could you confirm whether O=C(CCl)Nc1ccc2c(c1)C(=O)c1ccccc1C2=O has growth at or above 10%?
f

Dear colleague, could you confirm whether COc1cc(-c2nc(-c3ccc(-c4nc5ccc(F)cc5[nH]4)cc3)no2)cc(OC)c1OC has growth at or above 10%?
t

Dear colleague, could you confirm whether COc1ccccc1-[n+]1cc(-c2ccc(-c3ccccc3)cc2)n2c1CCCCC2 has growth at or above 10%?
f

Dear colleague, could you confirm whether Cc1nn(-c2cccc(Cl)c2)c(C)c1N=Nc1ccc(Br)cc1 has growth at or above 10%?
t

Dear colleague, could you confirm whether COc1cc(C2CC(=O)Nc3c2cnn3C)cc(OC)c1OC (stereo not drawn) has growth at or above 10%?
t

Dear colleague, could you confirm whether COCc1nc(NS(=O)(=O)c2ccc(N)cc2)nc(C)c1Br has growth at or above 10%?
t

Dear colleague, could you confirm whether CCN(CC)CC(=O)Nc1c(C)cc(C(=O)NN)cc1C has growth at or above 10%?
t

Dear colleague, could you confirm whether CSc1nc(N)c2[nH]c(-c3cc4ccccc4[nH]c3=O)nc2n1 has growth at or above 10%?
t

Dear colleague, could you confirm whether COc1ccc(C(=O)O)cc1.[Ag] has growth at or above 10%?
f

Dear colleague, could you confirm whether Cn1c(=O)c2c(nc(N/N=C/c3ccccc3Cl)n2C)n(C)c1=O has growth at or above 10%?
t

Dear colleague, could you confirm whether COc1cc2c(=O)n(CCCN(C)C)c3c4cc[nH]c4ncc3c2cc1OC has growth at or above 10%?
f

Dear colleague, could you confirm whether c1cn2cc(-c3ccc4ncn(C5CCCCC5)c4c3)nc(-c3ccc4c(c3)ncn4C3CCCCC3)c2n1 has growth at or above 10%?
f

Dear colleague, could you confirm whether COc1ccc(-n2nc(C(=O)Nc3ccc(F)cc3)nc2-c2cc(OC)c(OC)c(OC)c2)cc1 has growth at or above 10%?
t

Dear colleague, could you confirm whether CC(C)(C)c1nn(-c2ccccc2)c2c1C(=O)CSC(c1ccc3c(c1)OCO3)N2 (stereo not drawn) has growth at or above 10%?
t
